# testedOn: human IL-21R expressed on cells (human, UniProt Q9HBE5 20-538)
# Sequence (Q9HBE5 20-538 limits assumed): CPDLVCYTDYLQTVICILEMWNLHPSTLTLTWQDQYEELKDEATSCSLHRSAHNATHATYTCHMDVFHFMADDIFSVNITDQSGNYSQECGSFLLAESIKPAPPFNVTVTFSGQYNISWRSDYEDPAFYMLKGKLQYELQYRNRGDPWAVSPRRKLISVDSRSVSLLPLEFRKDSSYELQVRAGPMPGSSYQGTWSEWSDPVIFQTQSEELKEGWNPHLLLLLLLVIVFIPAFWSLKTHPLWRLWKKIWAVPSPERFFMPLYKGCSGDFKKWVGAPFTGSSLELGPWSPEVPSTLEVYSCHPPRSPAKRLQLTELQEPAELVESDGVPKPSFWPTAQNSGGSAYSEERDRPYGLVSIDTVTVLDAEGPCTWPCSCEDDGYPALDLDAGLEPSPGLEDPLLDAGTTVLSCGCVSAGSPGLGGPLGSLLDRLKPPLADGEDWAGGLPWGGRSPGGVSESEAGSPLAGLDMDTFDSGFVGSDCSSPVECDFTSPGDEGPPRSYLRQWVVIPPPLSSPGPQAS
# measurementProtocol: cell-based or functional assay
# IC50 (nM) in Human IL-21R-TF1 Neutralization Assay per entry
Report the figure in nM without appending any unit label.

binder	numericValue
scFv L10 (scFv) scFv: QVQLQESGPGLVKTSETLSLTCAVSGYSISSGYYWGWIRQPPGKGLEWIGSISHTGNTYYNPPLKSRVTISVDTSKNQFSLKLSSVTAADTAVYYCARGGGISRPEYWGKGTLVTVSSGGGGSGGGGSGGGGSALSSELTQDPPVSVALGQTVTLTCQGDSLRTYYASWYQQKSGQAPILLLYGKHKRPSGIPDRFSGSTSGDTASLTITGAQAEDEADYYCISRSIYGNPHVLFGGGTQLTVL	7

Fill in the blank: the reported IC50 (nM) in Human IL-21R-TF1 Neutralization Assay of scFv L15 (scFv) scFv: QVQLQESGPGLVKTSETLSLTCAVSGYSISSGYYWGWIRQPPGKGLEWIGSISHTGNTYYNPPLKSRVTISVDTSKNQFSLKLSSVTAADTAVYYCARGGGISRPEYWGKGTLVTVSSGGGGSGGGGSGGGGSALSSELTQDPPVSVALGQTVTLTCQGDSLRTYYASWYQQKSGQAPILLLYGKHKRPSGIPDRFSGSTSGDTASLTITGAQAEDEADYYCSTRAIHGNPHVLFGGGTQLTVL is ____.
30.3

src = patent US20090298167A1
